Cited source: patent US12441718B2

Record form. Attribute: inhibition at 10 µM. Fill in for each entry.
Target: CYP2C19 (Homo sapiens)
Construct: isoform-specific substrates incubated with human liver microsomes; tissue Eurofins ITEMG232 (protocol number); host or cells: human liver microsomes
Sequence (P33261 whole entry, canonical isoform): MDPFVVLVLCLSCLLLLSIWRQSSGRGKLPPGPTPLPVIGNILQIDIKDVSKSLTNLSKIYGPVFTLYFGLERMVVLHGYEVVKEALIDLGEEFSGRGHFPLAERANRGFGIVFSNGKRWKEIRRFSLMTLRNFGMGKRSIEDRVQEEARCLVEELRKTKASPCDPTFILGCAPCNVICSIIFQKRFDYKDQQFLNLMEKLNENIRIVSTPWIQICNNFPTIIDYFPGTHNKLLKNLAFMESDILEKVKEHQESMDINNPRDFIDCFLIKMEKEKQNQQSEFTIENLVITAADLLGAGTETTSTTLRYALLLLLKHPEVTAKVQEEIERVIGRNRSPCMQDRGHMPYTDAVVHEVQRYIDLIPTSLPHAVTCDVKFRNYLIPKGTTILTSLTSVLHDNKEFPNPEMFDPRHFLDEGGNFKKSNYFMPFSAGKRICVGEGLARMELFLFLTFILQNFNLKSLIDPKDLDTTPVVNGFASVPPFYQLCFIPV
Assay: CYP inhibition in human liver microsomes (Eurofins ITEMG232)
Type: in vitro ADME
Conditions: human, probe omeprazole, substrate omeprazole, read-out: CYP2C19 Inh %
Entry rule: numbers only, all in %.

Query inhibition at 10 µM for CC(C)Cc1ccc(S(=O)(=O)Nc2ncc(C(F)(F)F)cn2)c(-c2ccc(Cn3ccnc3C(C)(C)C)cc2)c1
62.3

For the compound CC(C)Cc1ccc(S(=O)(=O)Nc2ncc(Cl)cn2)c(-c2ccc(Cn3ccnc3C(C)(C)C)cc2)c1 , give its reported inhibition at 10 µM.
37

Tell me its inhibition at 10 µM given Cc1nccn1Cc1ccc(-c2cc(CC(C)C)ccc2S(=O)(=O)Nc2ncccn2)cc1F as the entry.
65

State, in one line, measured inhibition at 10 µM of CC(C)Cc1ccc(S(=O)(=O)Nc2ncc(Br)cn2)c(-c2ccc(Cn3ccnc3C(C)(C)C)c(F)c2)c1
47.5

Recall and state the measured inhibition at 10 µM for Cc1nc(NS(=O)(=O)c2ccc(CC(C)C)cc2-c2ccc(Cn3ccnc3C(C)(C)C)cc2)oc1C .
52.1

Find the measured inhibition at 10 µM of Cc1cnc(NS(=O)(=O)c2ccc(CC(C)C)cc2-c2ccc(Cn3ccnc3C(C)(C)C)cc2)nc1 and report it.
48

Kindly indicate its recorded inhibition at 10 µM. Item: CC(C)Cc1ccc(S(=O)(=O)Nc2ncc(Br)cn2)c(-c2ccc(Cn3ccnc3C(C)(C)C)cc2)c1
37.2
